- procedure summary: Pharmacokinetic (PK) studies, in vivo monkey oral PK
- Set-up: species or system Cynomolgus monkeys
- settings: Cynomolgus monkey, single oral dose 1 mg/kg, plasma
readout kind: Tmax

Quick one: Tmax of N#Cc1ccc(COc2cccc(C3CCN(Cc4nc5ccc(C(=O)O)cc5n4C[C@@H]4CCO4)CC3)n2)c(F)c1 [CE-1, reference compound] ? 2.2 h

----------
Reported pEC50 values for a set of compounds
- target system: GLP-1R (Homo sapiens, UniProt P43220)
- Sequence (P43220 24-463): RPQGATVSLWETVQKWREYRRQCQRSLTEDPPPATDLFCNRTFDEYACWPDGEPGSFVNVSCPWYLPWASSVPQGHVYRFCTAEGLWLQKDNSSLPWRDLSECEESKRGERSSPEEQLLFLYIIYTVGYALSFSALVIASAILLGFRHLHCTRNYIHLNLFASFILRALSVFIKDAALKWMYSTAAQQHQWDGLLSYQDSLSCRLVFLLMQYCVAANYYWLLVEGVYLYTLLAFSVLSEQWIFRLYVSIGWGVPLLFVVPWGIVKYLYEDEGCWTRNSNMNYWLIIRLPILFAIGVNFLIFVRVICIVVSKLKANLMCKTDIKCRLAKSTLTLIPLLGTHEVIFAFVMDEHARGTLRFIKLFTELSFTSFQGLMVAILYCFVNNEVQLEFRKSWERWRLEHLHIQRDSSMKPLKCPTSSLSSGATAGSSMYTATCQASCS
- procedure summary: GLP-1R Activation - cAMP Assay
- Type: cell-based
- settings: cAMP increase in CHO cells stably expressing GLP-1R; each compound run on one of the two cAMP assays (Assay 1 or Assay 2, not specified)
// pEC50 is dimensionless: -log10 of concentration (M)

Example entries begin here.
CC1(C)COC[C@H]1n1c(Cc2cc(F)c(-c3cccc(OCc4ncc(-n5ccnn5)cc4Cl)n3)cc2F)nc2ccc(C(=O)O)cc21 | 9.73
CC1(C)COC[C@H]1n1c(Cc2c(F)cc(-c3ccnc(OCc4ccc(Cl)cc4)n3)c(F)c2F)nc2c(F)cc(C(=O)O)cc21 | 9.87
COCCn1c(Cc2cc(F)c(-c3cccc(OCc4cc(F)c(C)cc4F)n3)cc2F)nc2ccc(C(=O)O)cc21 | 8.84
COCCn1c(Cc2cc(F)c(-c3cccc(OCc4ccc(C#N)cc4F)n3)cc2F)nc2c(-c3ccccn3)cc(C(=O)O)cc21 | 8.87
CC1(C)COC[C@H]1n1c(Cc2c(F)cc(-c3ccc(F)c(OCc4ccc(C#N)cc4)n3)c(F)c2F)nc2c(F)cc(C(=O)O)cc21 | 9.85

What value of pEC50 has been reported for the following compound? `COCCn1c(Cc2cc(F)c(-c3cccc(OCc4ncc(Br)cc4F)n3)cc2F)nc2ccc(C(=O)O)cc21` 8.34

Follow-up item: `CC1(C)COC[C@H]1n1c(Cc2cc(F)c(-c3cccc(OCc4ccccc4)n3)cc2F)nc2ccc(C(=O)O)cc21` 9.43

Also check `Cc1cc(Cc2nc3c(F)cc(C(=O)O)cc3n2[C@@H]2COCC2(C)C)c(Cl)cc1-c1ccc(F)c(OCc2ccc(C#N)cc2F)n1` 9.87

Now give it for CC1(C)COCC1n1c(Cc2cc(F)c(-c3cccc(OCc4ccc(C#N)cc4F)n3)cc2F)nc2ccc(C(=O)O)c(F)c21 (stereo not shown) [Example 166] too. 9.65

Now the same for `CC1(C)COC[C@H]1n1c(Cc2cc(F)c(-c3ccc(F)c(OCc4c(F)cccc4F)n3)cc2F)nc2ccc(C(=O)O)cc21` 9.22

Another: `CC1(C)COC[C@H]1n1c(Cc2cc(F)c(-c3cccc(OCc4ccc(F)cc4F)n3)cc2F)nc2ccc(C(=O)O)cc21` 9.91

Now try `COCCn1c(Cc2c(F)cc(-c3ccc(F)c(OCc4cnc(-n5ccnn5)cc4Cl)n3)c(F)c2F)nc2ccc(C(=O)O)cc21` . 10.44

Would you mind doing `Cc1ncc(-c2ccc(COc3cccc(-c4cc(F)c(Cc5nc6ccc(C(=O)O)cc6n5[C@@H]5COCC5(C)C)cc4F)n3)c(F)c2)o1` as well? 9.55

----------
- target system: GLP-1R (Homo sapiens, UniProt P43220)
- procedure summary: GLP-1R Activation - cAMP Assay
- Assay type: cell-based
- settings: cAMP increase in CHO cells stably expressing GLP-1R; each compound run on one of the two cAMP assays (Assay 1 or Assay 2, not specified)
With a cut-off of 0.07 nM, any EC50 strictly below it is called yes; any EC50 meeting it or above is called no.

Use these answered entries as a reference point.
Cc1cc(Cc2nc3c(F)cc(C(=O)O)cc3n2[C@@H]2COCC2(C)C)c(Cl)cc1-c1cccc(OCc2ccc(C#N)cc2F)n1 | yes
CC1(C)COC[C@H]1n1c(Cc2cc(F)c(-c3cccc(OCc4ccc(C#N)c(F)c4F)n3)cc2F)nc2c(F)cc(C(=O)O)cc21 | no
COc1cc(Cl)ncc1COc1nc(-c2cc(F)c(Cc3nc4c(F)cc(C(=O)O)cc4n3[C@@H]3COCC3(C)C)c(F)c2F)ccc1F | yes
COC[C@H]1COC[C@H]1n1c(Cc2cc(F)c(-c3ccc(F)c(OCc4ccc(Cl)cc4F)c3)cc2F)nc2ccc(C(=O)O)cc21 | no

Continue with the next compound.
Say whether its EC50 is strictly beneath 0.07 nM. Entry: `CO[C@H](C)[C@@H](C)n1c(Cc2cc(F)c(-c3cccc(OCc4ccc(Cl)cc4F)n3)cc2F)nc2ccc(C(=O)O)cc21` no

src = patent US12570642B2
